system: lung cancer (A549); test: In vitro cytotoxicity, MTT assay; type: cell-based; details: Homo sapiens; A549, MTT; read-out: IC50
Catalogue of IC50 readings, one per entry.
Report the figure in µM without appending any unit label.

Enquiry: // Input: `Cc1c(O)c(O)c(O)c2c1COC2` . Output its IC50 only.
Return: 6.3

Enquiry: In one line, give reported IC50 of the entry COC1OC(C2OCc3c(C)c(O)c(O)c(O)c32)c2c(O)c(O)c(O)c(C)c21 (stereo not shown) .
Return: 9.2

Further cases:
Enquiry: Name the recorded IC50 of the compound listed here: Cc1c(O)c(O)c2c(c1C=O)[C@@H]1O[C@H](O2)c2c(C)c(O)c(O)c(O)c2C1=O [Compound 3, epicocconigrone A]
Return: 10

Enquiry: Please look at this compound and report its IC50: Cc1c(O)c(O)c(O)c2c1C(=O)OC2 [Compound 5, epicoccone]
Return: 6.8

###

Listing: pIC50 of selected compounds
System: human endocervical adenocarcinoma (KB3.1)
Assay: In vitro cytotoxicity, MTT assay
Format: cell-based
Conditions: KB 3-1, KB3.1, MTT
Procedure: In vitro cytotoxicity studies (data expressed in the form of IC50 values) were performed over a concentration range between 1 and 37 µg/mL on a panel of seven cancer cell lines including human endocervical adenocarcinoma (KB3.1), mouse fibroblasts (L929), lung cancer (A549), squamous cancer (A431), prostate cancer (PC-3), breast cancer (MCF-7), and ovary cancer (SK-OV-3) using the MTT assay as previously reported.
Hey, just a heads up that pIC50 is the negative log base 10 of the concentration in molar.

Completed entries (count: 4):
Enquiry: Note down pIC50 recorded for Cc1c(O)c(O)c(O)c2c1C(=O)OC2 [Compound 5, epicoccone]
Return: 5.21

Enquiry: Name the recorded pIC50 of the item Cc1c2c(c3c(C)c(O)c(C(=O)O)c(O)c3c1O)COC2 [Compound 1, epicoccofuran A] in your answer.
Return: 4.80

Enquiry: Could you please provide reported pIC50 for `Cc1c(O)c(O)c(O)c2c1COC2` ? Thanks!
Return: 5.47

Enquiry: Consider the compound COC1OC(C2OCc3c(C)c(O)c(O)c(O)c32)c2c(O)c(O)c(O)c(C)c21 (stereo not drawn) and give its recorded pIC50.
Return: 5.11

Next:
Enquiry: Look up pIC50 of Cc1c(O)c(O)c2c(c1C=O)[C@@H]1O[C@H](O2)c2c(C)c(O)c(O)c(O)c2C1=O [Compound 3, epicocconigrone A] and report it.
Return: 5.57

Enquiry: Fill in pIC50 for record Cc1c(O)c(O)c(O)c(C=O)c1-c1cc2c(C=O)c(C)c(O)c(O)c2o1 [Compound 4, epicoccolide B]
Return: 4.68

###

system: breast cancer (MCF-7); experiment: In vitro cytotoxicity, MTT assay; assay type: cell-based; settings: Homo sapiens, MCF7
parameter: pIC50
Keep it numeric: pIC50 is minus log10 of the concentration in mol/L.

Enquiry: Give recorded pIC50. C/C(=C\c1csc(C)n1)[C@@H]1C[C@@H]2O[C@]2(C)CCC[C@H](C)[C@H](O)[C@@H](C)C(=O)C(C)(C)[C@@H](O)CC(=O)O1 [Epothilone B, reference compound]
Return: 10.15
